target: LPAAT-β (Homo sapiens); experiment: DTNB (Ellman's reagent) 96-well plate screening assay of LPAAT-β enzymatic activity; assay type: biochemical; parameters: The assay utilizes full-length, recombinant, baculovirus-produced LPAAT-β; made in house; conditions: read-out: IC50 (μM) (DTNB assay) (converted)
Sequence (O15120 24-278): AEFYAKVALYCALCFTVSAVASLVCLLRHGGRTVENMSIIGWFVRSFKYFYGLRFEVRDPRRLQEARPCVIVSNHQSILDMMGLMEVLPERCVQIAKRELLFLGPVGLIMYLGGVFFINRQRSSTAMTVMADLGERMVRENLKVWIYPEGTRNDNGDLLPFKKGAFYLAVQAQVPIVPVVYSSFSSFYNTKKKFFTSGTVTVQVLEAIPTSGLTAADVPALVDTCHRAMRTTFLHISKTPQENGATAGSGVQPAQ
experimental-endpoint: IC50

                                   compound         subject_of_test  value_measured
0  CCCc1cccc(C=NN=c2scc(-c3ccccc3)n2C)c1O [Compound 11b]  LPAAT-β (Homo sapiens)        > 100 µM
1  C=CCc1cccc(C=NN=c2scc(-c3ccccc3)n2C)c1O [Compound 11a]  LPAAT-β (Homo sapiens)        > 100 µM
2  CC(=NNC(N)=S)c1cc(Cl)cc(Cl)c1O [Compound 15f]  LPAAT-β (Homo sapiens)         0.27 µM
3                       NC(=S)NN=Cc1ccccc1O  LPAAT-β (Homo sapiens)        > 100 µM
4                  CCOc1cccc(C=NNC(N)=S)c1O  LPAAT-β (Homo sapiens)        > 100 µM

Next compound, IC50 to be filled in.
Sure, the documented IC50 for C=CCc1cccc(C=NN=c2[nH]c(-c3ccccc3)cs2)c1O [Compound 11c] is > 100 µM
